// compounds with IC50 on Cathepsin B (Homo sapiens, UniProt P07858), multi-source literature

# count of solved cases: 3
compound	assaySystem	result
NC(=S)N/N=C1\CC(Nc2ccccc2)c2ccc(Br)cc21 (centres undefined)	Cathepsin B (Homo sapiens, UniProt P07858)	> 10 µM
CC(=O)N1CC/C(=N\NC(N)=S)c2ccccc21	Cathepsin B (Homo sapiens, UniProt P07858)	> 10 µM
CCCC[C@H](NC(=O)O[C@H](Cn1ccc(-c2ccc(C(F)(F)F)cc2)n1)C(C)(C)C)C(=O)C(=O)Nc1ccn[nH]1	Cathepsin B (Homo sapiens, UniProt P07858)	20 µM

From here, focus on the item given below.
Ask: Return reported IC50; argument: N=C(N)c1ccc(/N=N/Nc2ccc(C(=N)N)cc2)cc1
Result: > 30 µM
